B1: Progranulin (Homo sapiens), P28799 (parent)
chain: MWTLVSWVALTAGLVAGTRCPDGQFCPVACCLDPGGASYSCCRPLLDKWPTTLSRHLGGPCQVDAHCSAGHSCIFTVSGTSSCCPFPEAVACGDGHHCCPRGFHCSADGRSCFQRSGNNSVGAIQCPDSQFECPDFSTCCVMVDGSWGCCPMPQASCCEDRVHCCPHGAFCDLVHTRCITPTGTHPLAKKLPAQRTNRAVALSSSVMCPDARSRCPDGSTCCELPSGKYGCCPMPNATCCSDHLHCCPQDTVCDLIQSKCLSKENATTDLLTKLPAHTVGDVKCDMEVSCPDGYTCCRLQSGAWGCCPFTQAVCCEDHIHCCPAGFTCDTQKGTCEQGPHQVPWMEKAPAHLSLPDPQALKRDVPCDNVSSCPSSDTCCQLTSGEWGCCPIPEAVCCSDHQHCCPQGYTCVAEGQCQRGSEIVAGLEKMPARRASLSHPRDIGCDQHTSCPVGQTCCPSLGGSWACCQLPHAVCCEDRQHCCPAGYTCNVKARSCEKEVVSAQPATFLARSPHVGVKDVECGEGHFCHDNQTCCRDNRQGWACCPYRQGVCCADRRHCCPAGFRCAARGTKCLRREAPRWDAPLRDPALRQLL
partner: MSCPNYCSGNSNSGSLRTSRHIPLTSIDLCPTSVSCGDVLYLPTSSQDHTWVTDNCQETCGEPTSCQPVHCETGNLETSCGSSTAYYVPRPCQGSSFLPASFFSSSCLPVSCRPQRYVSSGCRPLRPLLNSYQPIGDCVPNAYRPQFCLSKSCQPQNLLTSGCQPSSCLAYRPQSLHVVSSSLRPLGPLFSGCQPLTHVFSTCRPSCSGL

Variants of: B1
test.settings: with kr261_human KRTAP26-1, Q6PEX3

>  <mutant.label>
P248L

>  <effect of a mutation on the interaction>
with no effect

$$$$
>  <mutant.label>
P451L

>  <effect of a mutation on the interaction>
with no effect

$$$$
